The values you see were collected from paper PMC5408233.

- System under test: rat TRPV1 (rTRPV1) (Rattus norvegicus, UniProt O35433)
- Construct: expressed in transfected cells
- Sequence (O35433 whole entry): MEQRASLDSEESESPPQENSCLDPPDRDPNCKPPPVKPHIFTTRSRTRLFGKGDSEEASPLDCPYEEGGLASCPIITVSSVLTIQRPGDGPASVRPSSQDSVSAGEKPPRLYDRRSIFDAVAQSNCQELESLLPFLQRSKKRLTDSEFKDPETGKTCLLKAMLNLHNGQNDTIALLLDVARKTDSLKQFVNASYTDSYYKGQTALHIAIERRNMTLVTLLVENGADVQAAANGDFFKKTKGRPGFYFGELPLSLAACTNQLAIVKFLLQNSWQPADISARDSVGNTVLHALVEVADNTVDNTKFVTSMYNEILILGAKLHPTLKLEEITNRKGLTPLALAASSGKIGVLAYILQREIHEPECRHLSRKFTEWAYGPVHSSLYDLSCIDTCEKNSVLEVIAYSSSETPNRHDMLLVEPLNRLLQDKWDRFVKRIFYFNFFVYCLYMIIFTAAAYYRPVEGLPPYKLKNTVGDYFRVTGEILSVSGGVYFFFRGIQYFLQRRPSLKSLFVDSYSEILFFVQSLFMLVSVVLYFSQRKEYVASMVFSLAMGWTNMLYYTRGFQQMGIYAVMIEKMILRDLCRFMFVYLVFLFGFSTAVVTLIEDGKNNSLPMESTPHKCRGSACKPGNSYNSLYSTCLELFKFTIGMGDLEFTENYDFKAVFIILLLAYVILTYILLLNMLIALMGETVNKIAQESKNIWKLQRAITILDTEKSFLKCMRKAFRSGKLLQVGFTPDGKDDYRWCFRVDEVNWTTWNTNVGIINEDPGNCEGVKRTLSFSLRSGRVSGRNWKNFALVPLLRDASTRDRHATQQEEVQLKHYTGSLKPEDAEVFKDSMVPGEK
- Method: Fluo-4 intracellular calcium assay, inhibition of capsaicin-induced [Ca2+] response in CHO cells expressing rTRPV1
- Format: cell-based
- Test settings: inhibitory activity; CHO cells expressing rTRPV1; agonist 500 nM capsaicin; preincubation 30 min at 37 °C; mean ± s.e.; read-out: EC50 (µM) rTRPV1
Metric name: EC50

Compound | EC50
CCC/C=C\CC[C@@H](O)C[C@H]1CCC2=C(C(=O)OCCCCN(O)C(=N)N)[C@H](CC/C=C\CCC)NC(=N)N21 | 21.5 µM
CCC/C=C\CC[C@@H](O)C[C@H]1CCC2=C(C(=O)OC)[C@H](CC/C=C\CCC)NC(=N)N21 | 435 µM

Here is the next item to consider.
Which EC50 is listed for CCCCCCC[C@@H](O)C[C@H]1CCC2=C(C(=O)OCCCCN(O)C(=N)N)[C@H](CCCCCCC)NC(=N)N21 [Compound 3, Tetrahydrourupocidin A] ?
52.8 µM

###

- System under test: human TRPV3 (hTRPV3) (Homo sapiens, UniProt Q8NET8)
- Construct: expressed in transfected cells
- Sequence (Q8NET8 whole entry): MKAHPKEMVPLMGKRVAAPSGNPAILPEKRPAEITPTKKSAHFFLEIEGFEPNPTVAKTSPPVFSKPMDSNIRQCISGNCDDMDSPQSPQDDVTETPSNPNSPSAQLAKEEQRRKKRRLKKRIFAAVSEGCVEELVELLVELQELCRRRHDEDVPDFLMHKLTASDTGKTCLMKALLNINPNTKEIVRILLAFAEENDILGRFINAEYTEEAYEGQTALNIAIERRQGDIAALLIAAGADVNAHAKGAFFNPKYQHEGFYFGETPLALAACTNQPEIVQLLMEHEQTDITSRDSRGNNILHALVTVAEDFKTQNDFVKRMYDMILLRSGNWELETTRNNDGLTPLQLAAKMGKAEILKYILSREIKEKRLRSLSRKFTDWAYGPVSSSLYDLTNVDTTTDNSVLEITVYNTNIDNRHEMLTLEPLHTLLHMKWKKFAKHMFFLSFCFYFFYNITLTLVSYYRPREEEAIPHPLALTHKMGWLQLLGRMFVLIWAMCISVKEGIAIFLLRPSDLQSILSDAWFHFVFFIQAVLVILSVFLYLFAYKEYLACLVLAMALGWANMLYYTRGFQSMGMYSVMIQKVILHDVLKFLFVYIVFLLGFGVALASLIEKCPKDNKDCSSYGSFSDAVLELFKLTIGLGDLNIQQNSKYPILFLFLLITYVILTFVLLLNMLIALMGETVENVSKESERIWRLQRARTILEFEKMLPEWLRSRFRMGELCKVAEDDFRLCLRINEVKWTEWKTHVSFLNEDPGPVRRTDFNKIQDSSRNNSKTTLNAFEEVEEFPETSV
- Method: Fluo-4 intracellular calcium assay, inhibition of 2APB-induced [Ca2+] response in CHO cells expressing hTRPV3
- Type: cell-based
- Protocol: The guanidine alkaloids (1–4) were tested on inhibitory activities against rTRPV1 (Figure 2A), mTRPV2 (Figure 2B), hTRPV3 (Figure 2C) and rTRPA1 receptors expressed in CHO (Chinese hamster ovary) cells in a Fluo-4–based intracellular calcium assay. […] The effect of 1–4 on all the TRP-expressing cells was measured after preincubation at 37 °C for 30 min for standardization. […]
Metric name: EC50 (µM)
Respond with the bare value in µM.

Which EC50 is listed for CCC=CC1CCC2(CC3CCC4C(C(=O)OCCCCCCCCCCCCCCCC(=O)N(CCCN)CCCCN)C5(CCCC(C)O5)NC(=[N+]34)N2)O1 (stereo not shown) [Compound 1, monanchomycalin B] ?
3.25

###

- System under test: mouse TRPV2 (mTRPV2) (Mus musculus)
- Construct: expressed in transfected cells
- Sequence (Q9WTR1 1-756): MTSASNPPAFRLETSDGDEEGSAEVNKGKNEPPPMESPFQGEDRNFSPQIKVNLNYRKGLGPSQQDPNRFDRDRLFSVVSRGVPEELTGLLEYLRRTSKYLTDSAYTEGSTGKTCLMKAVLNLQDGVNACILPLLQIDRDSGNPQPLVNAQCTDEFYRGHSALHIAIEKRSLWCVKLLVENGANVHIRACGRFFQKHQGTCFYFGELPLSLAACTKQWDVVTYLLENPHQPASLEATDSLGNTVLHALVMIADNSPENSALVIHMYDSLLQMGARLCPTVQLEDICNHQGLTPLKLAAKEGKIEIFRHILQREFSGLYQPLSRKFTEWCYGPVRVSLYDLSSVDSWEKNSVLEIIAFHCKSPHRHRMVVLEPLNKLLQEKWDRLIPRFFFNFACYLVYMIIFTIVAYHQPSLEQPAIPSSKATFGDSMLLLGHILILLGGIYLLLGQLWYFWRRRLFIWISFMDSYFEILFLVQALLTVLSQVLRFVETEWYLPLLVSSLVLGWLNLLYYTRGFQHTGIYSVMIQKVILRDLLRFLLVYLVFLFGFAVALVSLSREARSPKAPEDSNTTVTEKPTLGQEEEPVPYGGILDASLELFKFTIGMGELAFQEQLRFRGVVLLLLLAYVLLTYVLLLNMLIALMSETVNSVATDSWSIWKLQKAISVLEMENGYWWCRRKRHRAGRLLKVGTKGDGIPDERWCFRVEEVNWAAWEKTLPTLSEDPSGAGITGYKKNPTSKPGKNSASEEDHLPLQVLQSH
- Method: Fluo-4 intracellular calcium assay, inhibition of 2APB-induced [Ca2+] response in CHO cells expressing mTRPV2
- Assay type: cell-based
Metric name: EC50
Please don't drop the unit; write it after the number.

Which EC50 is listed for CCC=CC1CCC2(CC3CCC4C(C(=O)OCCCCCCCCCCCCCCCC(=O)N(CCCN)CCCCN)C5(CCCC(C)O5)NC(=[N+]34)N2)O1 (stereo not shown) [Compound 1, monanchomycalin B] ?
2840 nM
